experiment: MITF transcriptional activity suppression – cell-based, SK-MEL-5, single point, luciferase, primary screen (AID 488899); conditions: SK-MEL-5 TRPM1 promoter luciferase, 24 h; at 12.5 µM; hits give high values
The whole screen tested about 330,000 compounds, of which about 2,800 (0.85%) were called active. Many of the other results were omitted from the sample, so actives are more common in it than they were.
READOUT_LABEL: inhibition (%)
Answers are plain numbers, in %.

[
  {
    "COMPOUND": "Cn1c(=O)c2c(n(Cc3ccccc3)c1=O)NC(=O)C2CC(=O)N1CCc2ccccc2C1 (centres undefined)",
    "UNIT_INFO": "%",
    "inhibition": -5.67
  }
]

Give measured inhibition for every item shown.
1. O=[N+]([O-])c1cc2ccccc2nc1-c1ccccc1
2. Cc1ccc(Cl)cc1N1CCN(C(=O)c2cccc3c(=O)c(C)c(-c4ccccc4)oc23)CC1
3. COc1ccc(-n2c(C)nn(CC3CC3)c2=O)cc1
4. COc1cc2c(cc1OC)CN(C(=O)c1cc(S(=O)(=O)N3CCCCC3)ccc1Cl)CC2
5. O=c1oc(/C=C/c2ccccc2)nc2ccccc12
6. N#CCSc1nc(-c2ccccc2)nc2ccc(F)cc12
7. Nc1ccc(-n2nncc2-c2ccco2)cc1

(A)
-2.83
9.36
-0.556
10.9
-14.4
6.09
-11.2

Give measured inhibition for every item shown.
1. Cc1oc2c(C)c3oc(=O)c(CC(=O)N[C@@H](CC(C)C)C(=O)N[C@@H](Cc4ccccc4)C(=O)O)c(C)c3cc2c1C
2. Nc1ccccc1SC(C[N+](=O)[O-])c1ccccc1 (centres undefined)
3. O=C(NN=Cc1ccccc1O)NN=Cc1ccccc1O
4. CN(C)CCn1c2c(c(SCC(=O)Nc3ccccc3C(F)(F)F)nc1=O)CCCC2
5. CC(=O)N1CCc2ccc(N)cc21
6. Clc1ccc2nc(-c3ccccc3)nc(C(Cl)Cl)c2c1

(A)
[9.54, 75.5, 22.9, 1.54, 6.31, 90.9]

---

assay: MITF transcriptional activity suppression – cell-based, SK-MEL-5, single point, luciferase, primary screen (AID 488899); conditions: SK-MEL-5 TRPM1 promoter luciferase, 24 h; at 12.5 µM; hits give high values
Out of some 330,000 compounds screened, about 2,800 (0.85%) were called active. The sample holds actives, similar compounds and a random draw of the others, so the mix is not that of the screen.
READOUT_LABEL: inhibition (%)
One number for each entry, in %.

[
  {
    "COMPOUND": "COC(=O)COc1ccc2c(=O)c(Oc3ccccc3Br)coc2c1",
    "READOUT_LABEL": "inhibition",
    "READOUT_VALUE": -0.261
  },
  {
    "COMPOUND": "COc1ccc2[nH]c3c(c2c1)CCN1C(=O)C(CC(=O)NCCCN(C)C)C[C@H](C(=O)N2CCOCC2)[C@@]31CCC1CCCC1 (some centres undefined)",
    "READOUT_LABEL": "inhibition",
    "READOUT_VALUE": -12.1
  },
  {
    "COMPOUND": "Cc1cccc(N(C(=O)Cn2nnc(-c3ccc(C)o3)n2)C(C(=O)NC2CCCC2)c2ccncc2)c1 (centres undefined)",
    "READOUT_LABEL": "inhibition",
    "READOUT_VALUE": 3.32
  }
]

API: the following record is the query input.
(Q) Report measured inhibition; entry is Cc1ccc(S(=O)(=O)N(CC(=O)Nc2cccc([N+](=O)[O-])c2)Cc2ccc(Cl)cc2)cc1
(A) 15.8

---

assay: MITF transcriptional activity suppression – cell-based, SK-MEL-5, single point, luciferase, primary screen (AID 488899); details: SK-MEL-5 TRPM1 promoter luciferase, 24 h; at 12.5 µM; hits give high values
The whole screen tested about 330,000 compounds, of which about 2,800 (0.85%) were called active. Only a selection was taken, and actives are over-represented in it overall.
READOUT_LABEL: inhibition (%)
Answers are plain numbers, in %.

Give measured inhibition for every item shown.
1. COCCSc1nnc(NC(=O)c2cc(OC)c(OC)cc2[N+](=O)[O-])s1
2. Cc1ccccc1-c1n[nH]c(=S)n1/N=C/c1ccc(-c2ccccc2Br)o1
3. O=C(Nc1ccc2ccccc2c1[N+](=O)[O-])c1ccccc1
4. Cc1nnc(N/N=C/c2ccccn2)[nH]c1=O
5. O=C(COC(=O)c1ccc([N+](=O)[O-])cc1Cl)NC(=O)c1ccccc1
6. CCn1nnc2cc(C(=O)Nc3ccc(C(=O)OC(C)C)cc3)ccc21
7. CN(C)CCCN(C(=O)c1ccc(S(=O)(=O)N2CCCc3ccccc32)cc1)c1nc2ccc(F)cc2s1

(A)
-2.51
10.7
-36.6
79.6
-3.45
21.6
70.8

---

Please go through the items and note down their inhibition.
test: MITF transcriptional activity suppression – cell-based, SK-MEL-5, single point, luciferase, primary screen (AID 488899); conditions: SK-MEL-5 TRPM1 promoter luciferase, 24 h; at 12.5 µM; hits give high values
The campaign covered roughly 330,000 compounds. About 2,800 (0.85%) were called active. For the sample, actives were picked, then their nearest neighbours and some compounds at random.

Here's what some known entries look like.
[
  {
    "MOLECULE": "Cc1cc(C(=O)CCl)c(C)n1CC1COc2ccccc2O1 (stereo unspecified)",
    "inhibition": "51.2% (inactive)"
  },
  {
    "MOLECULE": "O=S(=O)(NCc1ccccc1Cl)c1cnc[nH]1",
    "inhibition": "9.3% (inactive)"
  },
  {
    "MOLECULE": "CC(C)c1ccc(S(=O)(=O)N2CCN(C(=O)CN3C(=O)NC(C)(c4ccccc4)C3=O)CC2)cc1 (stereo unspecified)",
    "inhibition": "-4.8% (inactive)"
  },
  {
    "MOLECULE": "Cc1cc(NC(=O)C(C)SCC(=O)Nc2cccc(S(=O)(=O)N3CCCCCC3)c2)no1 (stereo unspecified)",
    "inhibition": "18.1% (inactive)"
  },
  {
    "MOLECULE": "CCCCN1CC(CO)Oc2cccc(F)c2S1(=O)=O (stereo unspecified)",
    "inhibition": "0.622% (inactive)"
  }
]

API: the following record is the query input.
(Q) Report measured inhibition; entry is CN(CCc1ccccn1)C(=O)CCC1CCCN(Cc2ccccc2OC(F)F)C1 (stereo unspecified)
(A) -12.8% (inactive)

---

experiment: MITF transcriptional activity suppression – cell-based, SK-MEL-5, single point, luciferase, primary screen (AID 488899); details: SK-MEL-5 TRPM1 promoter luciferase, 24 h; at 12.5 µM; hits give high values
Hit rate of the full screen: of about 330,000 compounds, about 2,800 (0.85%) were called active. Only a selection was taken, and actives are over-represented in it overall.
READOUT_LABEL: inhibition (%)
Numbers only, in %.

Here's what some known entries look like.
[
  {
    "COMPOUND": "Cc1ccc(CNS(=O)(=O)CCNC(=O)c2ccccc2)cc1",
    "inhibition (%)": -8.66
  },
  {
    "COMPOUND": "COc1cccc(CNCCc2c[nH]c3ccccc23)c1OCc1ccccc1F",
    "inhibition (%)": 95.2
  },
  {
    "COMPOUND": "COc1ccc(C(CCNCc2ccccc2F)c2ccc(F)cc2)cc1 (stereo not drawn)",
    "inhibition (%)": -10.4
  },
  {
    "COMPOUND": "FC(F)(F)c1cccc(Cc2noc(CN3CCC(N4CCCCC4)CC3)n2)c1",
    "inhibition (%)": 1.26
  }
]

Give measured inhibition for every item shown.
1. CC(C)[C@@H](NC(=O)OC(C)(C)C)C(=O)NCC1CCC(C(=O)N[C@@H](Cc2ccccc2)C(=O)O)CC1 (stereo partly drawn)
2. CC(C)(C)CC(C)(C)NCC(O)COCCOc1ccc(Br)cc1 (stereo not drawn)
3. CCOC(=O)c1ccccc1OC(=O)Oc1ccccc1C(=O)OCC
4. CCN(CC(=O)NCCCN1CCOCC1)S(=O)(=O)c1cc(Cl)ccc1Cl
5. N#Cc1cc([N+](=O)[O-])ccc1Oc1cccc(/C=N/NC(=O)c2ccc(Cl)cc2)c1
6. COC(=O)C1=C(NC(=O)C(C)(C)C)CCS1

(A)
-3.13
85.9
24
12.6
4.52
-3.02

Give measured inhibition for every item shown.
1. CCOC(=O)C1CCCN(C(=O)/C=C/c2ccc(OC)cc2)C1 (stereo not drawn)
2. CCCc1nc2c(c(=O)c3ccccc3n2C)c(=O)n1C1CCCCCC1
3. Cn1c2ccccc2c2c(C(=O)N3CCN(c4ccc(F)cc4)CC3)cn(C3CCCC3)c(=O)c21
4. O=c1[nH]c(=S)[nH]c(O)c1/C=C1\C=Nc2ccccc21
5. COc1ccccc1NC(=O)CCCc1c[nH]c2ccccc12

(A)
-11.1
73.5
-8.48
65.4
-1.28

Give measured inhibition for every item shown.
1. CCOC(=O)/C(=N\Nc1ccccc1[N+](=O)[O-])c1csc(Nc2ccccc2)n1
2. Cc1ccc(NC(=O)/C(=C/c2ccc([N+](=O)[O-])cc2)NC(=O)c2ccccc2)cc1
3. Cc1csc(NC(=O)CSc2nnc(-c3cccnc3)o2)n1
4. Cc1[nH]c2c(C(=O)N3CCCC(CCC(=O)NCc4ccccc4F)C3)cccc2c1C (stereo not drawn)
5. C[C@@H]1C[C@@H]2O[C@H]2/C=C\C=C\C(=O)Cc2c(Cl)c(O)cc(O)c2C(=O)O1

(A)
-14.3
8.59
-14.8
-16
71.8

Give measured inhibition for every item shown.
1. O=C1[C@@H](c2ccccc2)[C@@H](c2ccccc2)N1c1cccnc1
2. C/C(=N\OCC(=O)O)c1ccc(Cl)cc1
3. O=C(CSc1n[nH]c(-c2cccs2)n1)N1CCCCC1

(A)
1: -10.4; 2: -2.61; 3: -12.1

Give measured inhibition for every item shown.
1. CCOC(=O)c1c(C)[nH]c2c1-c1ccccc1C(=O)C2=O
2. CCOC(=O)/C(=C\c1ccc([N+](=O)[O-])cc1)C(=O)c1cc(C(C)=O)c(Nc2ccccc2)s1
3. CCc1ccc(-c2cc(C)no2)cc1S(=O)(=O)NCCc1ccc(S(N)(=O)=O)cc1
4. COc1ccc(C(C[N+](=O)[O-])n2nc(C)cc2C)cc1 (stereo not drawn)
5. COc1ccc(CNC(=O)CN2C(=O)c3ccccc3S2(=O)=O)cc1

(A)
106
100
-13.2
27.2
13.6

Give measured inhibition for every item shown.
1. CCOc1ccc(-n2cnc3c(=O)[nH]c(N)nc32)cc1
2. COc1ccc(/C=C/C2=CC(C)(C)NC(=S)N2)c(OC)c1
3. CN(CC(=O)NCCc1ccc(F)cc1)CC(=O)Nc1ccc(F)c(F)c1F
4. Cc1ccc(NC(=O)CN2CCCCC2)c2c1CC(C)(C)O2

(A)
1: -21.7; 2: 10.5; 3: 19.3; 4: -7.61

(Q) Report measured inhibition; entry is Cc1ccc2c(O)c(Cc3ccccc3)c(=O)[nH]c2n1
(A) 2.8
